Target: T1, human GIP receptor (human) (UniProt P48546)
T1 sequence (looked up): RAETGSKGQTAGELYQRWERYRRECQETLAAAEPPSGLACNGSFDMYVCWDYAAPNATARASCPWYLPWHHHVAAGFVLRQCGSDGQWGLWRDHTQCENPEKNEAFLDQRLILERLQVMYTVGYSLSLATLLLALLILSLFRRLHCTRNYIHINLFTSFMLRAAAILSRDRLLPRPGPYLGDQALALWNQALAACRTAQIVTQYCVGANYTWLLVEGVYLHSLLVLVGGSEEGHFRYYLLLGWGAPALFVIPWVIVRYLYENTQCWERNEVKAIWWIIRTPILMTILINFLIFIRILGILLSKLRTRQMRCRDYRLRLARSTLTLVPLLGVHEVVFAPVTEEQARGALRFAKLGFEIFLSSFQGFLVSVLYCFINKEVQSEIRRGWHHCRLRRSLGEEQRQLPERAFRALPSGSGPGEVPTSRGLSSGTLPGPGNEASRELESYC
Experiment: cell-based or functional assay
Threshold 0.2 nM: Relative cAMP EC50 strictly smaller gives Condition met, otherwise Condition not met.

[in] For YXQGTFTSDXSKXLDKKAQXAFIEYLIEXGPSSGAPPPSGS (synthetic construct; SITE 2: note = 2-Aminoisobutyric Acid; SITE 10: note = 3-(4-Pyridyl)-L-alanine; SITE 13: note = alpha-methyl-leucine; SITE 17: note = Lysine is chemically modified through conjugation of the epsilon-amino group of the Lysine side chain with (2-[2-(2-Amino-ethoxy)-ethoxy]-acetyl)) [Example 801] , is the recorded Relative cAMP EC50 below the cut-off of 0.2 nM?
[out] Condition met

Next:
[in] For YXQGTFTSDFSKXLDKKAQXAFIQWLLEGGPSSGAPPPSEG (Lys acylated; non-natural residues; C-amide; synthetic construct; SITE 2: note = 2-Aminoisobutyric Acid; SITE 13: note = alpha-methyl-leucine; SITE 17: note = Lysine is chemically modified through conjugation of the epsilon-amino group of the Lysine side chain with (2-[2-(2-Amino-ethoxy)-ethoxy]-acetyl)-(gamma-Glu)-CO-(CH2) 18-CO2H; SITE 20: n) [Example 39] , is the recorded Relative cAMP EC50 below the cut-off of 0.2 nM?
[out] Condition not met

[in] For YXQGTFTSDFSKXLDKKAQXQFIEYLLEGGPSSGAPPPSEG (synthetic construct; SITE 2: note = 2-Aminoisobutyric Acid; SITE 13: note = alpha-methyl-leucine; SITE 17: note = Lysine is chemically modified through conjugation of the epsilon-amino group of the Lysine side chain with (2-[2-(2-Amino-ethoxy)-ethoxy]-acetyl)-(gamma-Glu)-CO-(CH2) 16-CO2H; SITE 20: n) [Example 51] , is the recorded Relative cAMP EC50 below the cut-off of 0.2 nM?
[out] Condition not met

[in] For YXQGTFTSDFSXXLDKKAQXAFIEWLLEGGPSSGAPPPEGS (synthetic construct; SITE 2: note = 2-Aminoisobutyric Acid; SITE 12: note = L-ornithine; SITE 13: note = alpha-methyl-leucine; SITE 17: note = Lysine is chemically modified through conjugation of the epsilon-amino group of the Lysine side chain with (2-[2-(2-Amino-ethoxy)-ethoxy]-acetyl)-(gamma-Glu)) [Example 121] , is the recorded Relative cAMP EC50 below the cut-off of 0.2 nM?
[out] Condition met

[in] For YXQGTFTSDFSKXLDKKAQXAFIEWLLAGGPSSGEPPPSGE (Aib, αMeL; acylated Lys; C-term amide; synthetic construct; SITE 2: note = 2-Aminoisobutyric Acid; SITE 13: note = alpha-methyl-leucine; SITE 17: note = Lysine is chemically modified through conjugation of the epsilon-amino group of the Lysine side chain with (2-[2-(2-Amino-ethoxy)-ethoxy]-acetyl)-(gamma-Glu)-CO-(CH2) 18-CO2H; SITE 20: n) [Example 21] , is the recorded Relative cAMP EC50 below the cut-off of 0.2 nM?
[out] Condition not met

[in] For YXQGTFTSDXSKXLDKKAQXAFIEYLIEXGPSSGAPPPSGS (synthetic construct; SITE 2: note = 2-Aminoisobutyric Acid; SITE 10: note = 3-(4-Pyridyl)-L-alanine; SITE 13: note = alpha-methyl-leucine; SITE 17: note = Lysine is chemically modified through conjugation of the epsilon-amino group of the Lysine side chain with (gamma-Glu)2-CO-(CH2)16-CO2H; SITE 20:) [Example 907] , is the recorded Relative cAMP EC50 below the cut-off of 0.2 nM?
[out] Condition met
